# ASSAY TEXT: folding enthalpy; higher = less favourable; fluorescence melt of hairpins on a sequencing array, two-state fit
# CONDITION LABEL: sodium 0.088 M
PROPERTY: folding enthalpy (kcal/mol)

>>> result("GCTTCGCGAAAGCGCGGC ((..(((....)))..))")
-18.8
>>> result("GCAGTCCGAAAGGAGTGC (((.(((....))).)))")
-47.7
>>> result("GCATACGGAAACGTACGC ((.((((....)))).))")
-31.4
>>> result("GTTGCCGAAAGGCGGAAC ((((((....)))..)))")
-7.95
>>> result("GTAGTCGAAAGACGATAC ((((((....)))..)))")
-13

Value source: the array DNA melting data of Ke et al. (doi:10.1101/2024.01.08.574731)
